Test system: SF-268
Test: NCI tumour cell line growth inhibition, 48 h
Calls of active or inactive are those of the source. Rule as the data show it: active = GI50 up to about 1.1 µM and inactive = higher.
Labels: active, inactive

1) O/N=C(/C(Cl)=C(Cl)Cl)C(Cl)Cl: inactive
2) O=C1N/C(=N/N=C/c2cccs2)N/C1=C\c1ccco1: inactive
3) C[Si](C)(C)OC1(C#N)c2ccccc2CCCC12CCCC2 (centres undefined): inactive
4) Nc1nc(=O)n(C2OC(CO)C(O)C2O)c2ncc(-c3ccc(-c4ccccc4)cc3)nc12 (centres undefined): inactive
5) Nc1cc2[nH]c(=O)c3cc(Cl)ccc3c2cc1Cl: inactive
6) CN(C)CCCNC(=O)N/N=C/c1cccc([N+](=O)[O-])c1: inactive
7) CC[C@H](C)[C@H](NC(=O)[C@H](Cc1ccc(O)cc1)NCC(F)(F)F)C(=O)OC(C)(C)C: inactive
8) N=C(N)c1ccc(/N=N\c2c(O)c(C(=O)Nc3ccccc3)cc3ccccc23)cc1: inactive
9) CCOC(=O)NC(=O)c1cn(CC(=O)NCC(=O)NCC(=O)N2CCN(CCn3c(C)nc(C(N)=O)c3N)CC2)c(=O)[nH]c1=O: inactive
10) Nc1cc(S(=O)(=O)O)cc2cc(S(=O)(=O)O)c(/N=N/c3ccc(-c4ccc(/N=N/c5c(S(=O)(=O)O)cc6cc(S(=O)(=O)O)cc(N)c6c5O)cc4)cc3)c(O)c12: inactive
11) CCN(CC)CCOc1ccc(N2Cc3cc(OC)c(OC)cc3C2=O)cc1: inactive
12) Cc1cc(O)nc(CNC(=O)c2cccc3ccccc23)n1: inactive
13) CC(=O)Nc1cc(C(=O)Nc2cc(C(=O)Nc3cc(C(=O)Nc4cc(C(=O)Nc5cc(C(=O)NCCC(=O)NCCCN(C)C)n(C)c5)n(C)c4)n(C)c3)n(C)c2)n(C)c1: inactive
14) CC(=O)OC1=C2CC3(C)OC(=O)CC(C)(C)C3=CC=C2C=C(C(C)C)C1=O (centres undefined): active
15) Cc1ccc2cccc3c2c1CC1(C3=O)S(=O)(=O)OCCOS1(=O)=O: inactive
16) [N-]=[N+]=NC1CC(n2cc(COCC(F)(F)F)c(=O)[nH]c2=O)OC1CO (centres undefined): inactive
17) N#C/C(=C\c1cc(Cl)cc(Cl)c1)c1ccccn1: inactive
18) CCCCCCCC(=O)N/N=C/c1ccc(Sc2nccn2C)c([N+](=O)[O-])c1: inactive
19) COc1ccc(C(OCC2OC(n3cc(C)c(=O)[nH]c3=O)CC2n2cc(Cn3cc(I)c(=O)[nH]c3=O)nn2)(c2ccccc2)c2ccccc2)cc1 (centres undefined): inactive
